Experiment notes: Plasma concentration level in rat after 1 hour of oral administration at 50 mg/kg
Format: ADME, organism-based
Design: dose 50 mg/kg, route oral
Measurement name: concentration at 1 h (ng/mL)
Give the quantity in ng/mL, number only.

INSERT INTO results (compound, measurement_name, unit_abbreviation, quantitative_readout) VALUES
  ('CN1CCN(c2c(F)cc3c(=O)c(C(=O)O)cn4c3c2SCC4)CC1', 'concentration at 1 h', 'ng/mL', 7740);

Here is another compound to look at.
Tell me measured concentration at 1 h for CC1Cn2cc(C(=O)O)c(=O)c3cc(F)c(N4CCN(C)CC4)c(c32)S1 (configuration not stated) please.
14100

###

Tested on: Pseudomonas aeruginosa
Experiment notes: Minimal inhibitory concentration against Pseudomonas aeruginosa ATCC 9027 strain
Type: functional
Measurement name: MIC

Study these solved cases before continuing.
INSERT INTO results (molecule, result) VALUES
  ('CC1Cn2cc(C(=O)O)c(=O)c3cc(F)c(N4CCNCC4)c(c32)S1 (stereo unspecified)', '64 µg/mL'),
  ('CC1Cn2cc(C(=O)O)c(=O)c3cc(F)c(N4CCCNCC4)c(c32)S1 (stereo unspecified)', '> 64 µg/mL'),
  ('CN1CCN(c2c(F)cc3c(=O)c(C(=O)O)cn4c3c2SC(c2ccc(F)cc2)C4)CC1 (stereo unspecified)', '> 64 µg/mL'),
  ('CC1Cn2cc(C(=O)O)c(=O)c3cc(F)c(N4CCN(c5ccc(F)cc5)CC4)c(c32)S1 (stereo unspecified)', '> 64 µg/mL'),
  ('CC1Cn2cc(C(=O)O)c(=O)c3cc(F)c(N4CCN(Cc5ccc(F)cc5F)CC4)c(c32)S1 (stereo unspecified)', '> 64 µg/mL'),
  ('O=C(O)c1cn2c3c(c(N4CCNCC4)c(F)cc3c1=O)SC(c1ccc(F)cc1)C2 (stereo unspecified)', '> 64 µg/mL'),
  ('CC1Cn2cc(C(=O)O)c(=O)c3cc(F)c(N4CCN(c5ccccn5)CC4)c(c32)S1 (stereo unspecified)', '> 64 µg/mL'),
  ('CC1Cn2cc(C(=O)O)c(=O)c3cc(F)c(N4CCN(C)CC4)c(c32)S1 (stereo unspecified)', '16 µg/mL');

State the measured MIC (Pseudomonas aeruginosa) of O=C(O)c1cn2c3c(c(Cl)c(F)cc3c1=O)SC(c1ccc(F)cc1)C2 (stereo unspecified)
> 64 µg/mL

Give measured MIC for CN1CCN(c2c(F)cc3c(=O)c(C(=O)O)cn4c3c2SCC4)CC1 [RUFLOXACIN] (Pseudomonas aeruginosa).
8 µg/mL

Give measured MIC for CC1Cn2cc(C(=O)O)c(=O)c3cc(F)c(N4CCN(C=O)CC4)c(c32)S1 (stereo unspecified) (Pseudomonas aeruginosa).
32 µg/mL

Find the measured MIC of O=C(O)c1cn2c3c(c(Cl)c(F)cc3c1=O)SC(c1ccccc1F)C2 (stereo unspecified) with Pseudomonas aeruginosa as test system.
> 64 µg/mL

Return reported MIC for target or system Pseudomonas aeruginosa, item CC1Cn2cc(C(=O)O)c(=O)c3cc(F)c(N4CCN(Cc5ccccc5C(F)(F)F)CC4)c(c32)S1 (stereo unspecified) .
> 64 µg/mL

Print Pseudomonas aeruginosa MIC for CC1CN(c2c(F)cc3c(=O)c(C(=O)O)cn4c3c2SC(C)C4)CC(C)N1 (stereo unspecified) .
32 µg/mL

Please report the measured MIC for CC1Cn2cc(C(=O)O)c(=O)c3cc(F)c(N4CCN(Cc5cccc(F)c5)CC4)c(c32)S1 (stereo unspecified) tested on Pseudomonas aeruginosa.
> 64 µg/mL

GET MIC where system = Pseudomonas aeruginosa and item = CC1Cn2cc(C(=O)O)c(=O)c3cc(F)c(-n4ccnc4)c(c32)S1 (stereo unspecified)
64 µg/mL

Report its MIC with Pseudomonas aeruginosa as the test system: O=C(O)c1cn2c3c(c(Cl)c(F)cc3c1=O)SC(c1cccc(F)c1)C2 (stereo unspecified)
> 64 µg/mL

State MIC (Pseudomonas aeruginosa) of CCNCC1CCN(c2c(F)cc3c(=O)c(C(=O)O)cn4c3c2SC(C)C4)C1 (stereo unspecified) .
> 64 µg/mL

Please look at CC1Cn2cc(C(=O)O)c(=O)c3cc(F)c(N4CCN(S(=O)(=O)c5ccc(F)cc5)CC4)c(c32)S1 (stereo unspecified) and tell me its recorded MIC on Pseudomonas aeruginosa.
> 64 µg/mL

Enter MIC (test system Pseudomonas aeruginosa) for CC1Cn2cc(C(=O)O)c(=O)c3cc(F)c(Cl)c(c32)S1 (stereo unspecified)
32 µg/mL

Under Pseudomonas aeruginosa, report MIC for CC1Cn2cc(C(=O)O)c(=O)c3cc(F)c(N4CCCC4)c(c32)S1 (stereo unspecified)
> 64 µg/mL
